The reported measurements were obtained from paper PMC11677126.

Measured CC50 at 72 h, listed per entry for reference.
# experiment: Toxicity assay in murine macrophages (resazurin)
# Format: cell-based
# study.conditions: BALB/c, mouse, mouse peritoneal macrophages, G2 piperazine thioureas, 0–125 µM
measured.parameter: CC50 at 72 h

S=C(NCCc1ccccc1)N1CCN(C(c2ccccc2)c2ccccc2)CC1 > 125 µM
S=C(Nc1ccccc1)N1CCN(C(c2ccccc2)c2ccccc2)CC1 > 125 µM
S=C(NCc1ccccc1)N1CCN(C(c2ccccc2)c2ccccc2)CC1 > 125 µM
